Numbers sourced from BindingDB's records for doi:10.1021/jm0010623.

List of pIC50 values.
# Assay system: DNA gyrase (Micrococcus luteus)
# Assay remarks: Antibacterial activity against Micrococcus luteus DNA gyrase.
Recall that pIC50 is obtained by taking minus log10 of the concentration measured in molar.

Solved cases below.
Cpd smiles	pIC50
COC(=O)c1c(Br)c(OC)cc(O)c1CSC[C@H](Nc1nc(-c2ccc([N+](=O)[O-])cc2)cs1)c1nc(C)no1	6.80
COC(=O)c1c(Br)c(OC)cc(O)c1CSC[C@H](Nc1nc(-c2ccc([N+](=O)[O-])cc2)cs1)C(=O)OC	6.49
COC(=O)c1c(Br)c(OC)cc(O)c1CSC[C@@H](Nc1nc(-c2ccc([N+](=O)[O-])cc2)cs1)C1=NOCCO1	4.20

Proceed to the following item.
Entry COC(=O)c1c(Br)c(OC)cc(O)c1CSC[C@H](Nc1nc(-c2ccc([N+](=O)[O-])cc2)cs1)C1=NOCCO1 : reported pIC50 = ? 6.20

###

List of IC50 values.
# Assay system: DNA topoisomerase I (Escherichia coli)
# Assay remarks: Antibacterial activity against Escherichia coli DNA topoisomerase I
Write the value in µM as a bare number.

Solved cases below.
Cpd smiles	IC50 [µM]
COC(=O)c1c(Br)c(OC)cc(O)c1CSC[C@H](Nc1nc(-c2ccc([N+](=O)[O-])cc2)cs1)C1=NOCCO1	187
COC(=O)c1c(Br)c(OC)cc(O)c1CSC[C@H](Nc1nc(-c2ccc([N+](=O)[O-])cc2)cs1)c1nc(C)no1	188

Proceed to the following item.
Entry COC(=O)c1c(Br)c(OC)cc(O)c1CSC[C@H](Nc1nc(-c2ccc([N+](=O)[O-])cc2)cs1)C(=O)OC : reported IC50 = ? 195

###

# Assay system: DNA gyrase (Escherichia coli)
# Assay remarks: Antibacterial activity against Escherichia coli DNA gyrase
Measured parameter: IC50 (nM)
Write the value in nM as a bare number.

Solved cases below.
Compound	Assay system	IC50 / nM
COC(=O)c1c(Br)c(OC)cc(O)c1CSC[C@H](Nc1nc(-c2ccc([N+](=O)[O-])cc2)cs1)C1=NOCCO1 [BAY-507952]	DNA gyrase (Escherichia coli)	781
COC(=O)c1c(Br)c(OC)cc(O)c1CSC[C@H](Nc1nc(-c2ccc([N+](=O)[O-])cc2)cs1)c1nc(C)no1 [Ro-616653]	DNA gyrase (Escherichia coli)	157

Entry COC(=O)c1c(Br)c(OC)cc(O)c1CSC[C@H](Nc1nc(-c2ccc([N+](=O)[O-])cc2)cs1)C(=O)OC [BAY-507950] : reported IC50 = ? 489
